# tested_target: furin, P09958;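 also: purified furin at 1:10 enzyme:substrate in 50 mM HEPES pH 7.5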
# Sequence (P09958 whole entry): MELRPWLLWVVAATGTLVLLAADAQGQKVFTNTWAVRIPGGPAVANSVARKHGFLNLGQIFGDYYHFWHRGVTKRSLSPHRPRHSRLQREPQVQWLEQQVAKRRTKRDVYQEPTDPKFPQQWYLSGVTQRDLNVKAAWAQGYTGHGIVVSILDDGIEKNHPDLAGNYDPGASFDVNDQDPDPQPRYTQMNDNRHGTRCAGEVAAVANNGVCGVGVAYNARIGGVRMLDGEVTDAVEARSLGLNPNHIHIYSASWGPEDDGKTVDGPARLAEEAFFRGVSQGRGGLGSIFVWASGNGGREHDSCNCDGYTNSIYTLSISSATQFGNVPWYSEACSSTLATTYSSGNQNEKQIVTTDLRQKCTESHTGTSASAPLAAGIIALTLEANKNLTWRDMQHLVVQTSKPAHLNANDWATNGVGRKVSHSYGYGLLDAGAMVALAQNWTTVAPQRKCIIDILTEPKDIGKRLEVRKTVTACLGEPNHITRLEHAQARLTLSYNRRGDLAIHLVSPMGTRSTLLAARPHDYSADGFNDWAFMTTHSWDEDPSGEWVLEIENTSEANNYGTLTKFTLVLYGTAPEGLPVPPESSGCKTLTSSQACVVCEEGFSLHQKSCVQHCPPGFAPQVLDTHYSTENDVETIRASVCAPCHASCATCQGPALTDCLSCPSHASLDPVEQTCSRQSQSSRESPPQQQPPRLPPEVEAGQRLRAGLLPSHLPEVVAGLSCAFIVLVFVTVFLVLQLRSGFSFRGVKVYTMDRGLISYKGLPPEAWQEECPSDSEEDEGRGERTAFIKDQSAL
# measurement_protocol: furin cleavage Z-score vs untreated control; higher = more cleavage, active = 3.5 or more, inactive = 1 or less, 8 variable residues between constant flanks
# experimental_parameters: 15 min
Some of the results follow. How many sequences the whole screen found active is unknown.
Allowed answers: 1 (active), 0 (inactive)

seq_text	answer_label
CASGDVVVVAAGNASASA [HC875]	0
CARSKRKKEVAGNASASA [FS-2304]	0
CAVVMCSMSYAGNASASA [HC2026]	0

Data request: # fetch the recorded call for CARDKRSALQAGNASASA [FS-1945] here
Data returned: 1

Data request: # fetch the recorded call for CARSKRREMQAGNASASA [FS-3207] here
Data returned: 0

Data request: # fetch the recorded call for CAEEVVCCSMAGNASASA [HC2132] here
Data returned: 0
